Target: Glutamate NMDA receptor
Experiment: Binding affinity was determined towards NMDA receptor using [3H]TCP as radioligand in rat
MEASUREMENT NAME: pKi
# log scale: pKi equals minus log10 of the concentration in mol/L

Ask: Give pKi only, for CCOC1(OCC)C2c3ccccc3C(C1C)[n+]1ccccc12.[O-][Cl+3]([O-])([O-])[O-] (stereo in doubt; 1a) , using Glutamate NMDA receptor data.
Result: 6.94

* * *

Molecular target: Glutamate NMDA receptor
Assay: Binding affinity was determined towards NMDA receptor using [3H]thienylcyclidine as radioligand
Assay type: protein-complex assay
Output True for records whose Ki is lower than 30 nM, False for records at or above 30 nM.

CCOC1(OCC)C2c3ccccc3C([n+]3ccccc32)C1(C)C (single isomer, unassigned; (+))	True

Ask: Here's an entry: CCOC1(OCC)C2c3ccccc3C([n+]3ccccc32)C1(OCC)OCC (stereo not given) . Is its Ki below 30 nM?
Result: False

Ask: Just wondering, is Ki of CCOC1(OCC)CC2c3ccccc3C1c1cccc[n+]12 (stereo not given) below 30 nM?
Result: False

* * *

Target: Glutamate NMDA receptor
Assay: Binding affinity was determined towards NMDA receptor using [3H]thienylcyclidine as radioligand
Assay type: protein-complex assay
MEASUREMENT NAME: log10 of Ki (log10 of the value in nM)
Answers are given as log10 of Ki in nM.

CCOC1(OCC)C2c3ccccc3C([n+]3c(C)cccc32)C1(C)C (configuration not stated)	2.50

Ask: Give Glutamate NMDA receptor log10 of Ki for the following compound: CCOC1C2c3ccccc3C([n+]3ccccc32)C1(C)C (stereo in doubt; 7b)
Result: 3.27

Ask: // fetch log10 of Ki for CCOC1(OCC)C2c3c(OC(C)=O)cccc3C([n+]3ccccc32)C1(C)C (configuration not stated) ; system: Glutamate NMDA receptor
Result: 1.41

* * *

Entries and their Ki
Target: Glutamate NMDA receptor
Assay: Binding affinity was determined towards NMDA receptor using [3H]thienylcyclidine as radioligand
Assay type: protein-complex assay
Kindly provide the numeric value in nM only, without the unit symbol.

// worked examples, Ki included
CCOC1(OCC)C2(C)c3ccccc3C([n+]3ccccc32)C1(C)C.[O-][Cl+3]([O-])([O-])[O-] (centres undefined)	11
CCOC1(OCC)C2c3c(C)cccc3C([n+]3ccccc32)C1(C)C (centres undefined)	46
CCOC1(OCC)C2c3c(O)cccc3C([n+]3ccccc32)C1(C)C (centres undefined)	8

Now turn to the next molecule.
Ask: Report measured Ki; entry is CCOC1(OCC)C2c3cc(Cl)ccc3C([n+]3ccccc32)C1(C)C (centres undefined)
Result: 12

Recorded values, source ChEMBL document CHEMBL1127300.
